Before we begin, note that these pIC50 values for Histone deacetylase 1 (Homo sapiens, UniProt Q13547) originate from several publications.
pIC50: −log10 of the molar value.
Assay Metric: pIC50

                          chemical_structure   assay_value
 0  COc1ncc(-c2nc(N3CCOCC3)nc3c(OC4CCN(c5ncc(C(=O)NO)cc5F)CC4)cc(F)cc23)cc1NS(C)(=O)=O  6.00 to 7.00
 1  CN1CC2(C1)CN(C(=S)N(Cc1ccc(-c3nnc(C(F)F)o3)cc1)c1ccc(F)c(Cl)c1)C2        < 5.00
 2  CN1CC2(C1)CN(C(=S)N(Cc1ccc(-c3nnc(C(F)F)o3)cc1F)c1ccccc1)C2        < 5.00
 3  CN1CC2(C1)CN(C(=S)N(Cc1ccc(-c3nnc(C(F)F)o3)cc1)c1cccc(F)c1)C2        < 5.00
 4  COc1ncc(-c2nc(N3CCOCC3)nc3c(OC4CCN(c5cc(C(=O)NO)no5)CC4)cc(F)cc23)cc1NS(C)(=O)=O  6.00 to 7.00
 5  C[C@@H](c1ccc(C(=O)Nc2cc(F)ccc2N)cc1)n1nc(-c2ccc(CN(C)C)cc2)ccc1=O          7.50
 6  Fc1ccc(N(Cc2ccc(-c3nnc(C(F)F)o3)cc2F)C(=S)N2CC3(C2)CN(C2COC2)C3)cc1F        < 5.00
 7  Cc1ccc(N)c(NC(=O)c2ccc([C@H](C)n3nc(-c4ccc(CN(C)C)cc4)ccc3=O)cc2)c1          7.35
 8  Fc1ccc(N(Cc2ccc(-c3nnc(C(F)F)o3)cc2F)C(=S)N2CC3(C2)CN(C2COC2)C3)cc1        < 5.00
 9  CC(C)c1cc(C(=O)N(Cc2ccc(C(=O)NO)cc2)c2ccccc2)c(O)cc1O          5.43
10  Fc1cccc(N(Cc2ccc(-c3nnc(C(F)F)o3)cc2)C(=S)N2CC3(C2)CN(C2COC2)C3)c1        < 5.00
11  CN1CCN(C(=S)N(Cc2ccc(-c3nnc(C(F)F)o3)cc2)c2ccccc2)CC1        < 5.00
12  COc1ncc(-c2nc(N3CCOCC3)nc3c(CNc4ccc(C(=O)NO)cc4F)cc(F)cc23)cc1NS(C)(=O)=O  6.00 to 7.00
13  CN1CC2(CCN(C(=S)N(Cc3ccc(-c4nnc(C(F)F)o4)cc3F)c3ccc(F)c(F)c3)CC2)C1        < 5.00
14           CCCNNC(=O)CCNC(=O)/C=C/c1cccnc1        < 5.00
15  CC(=O)N1CC2(C1)CN(C(=S)N(Cc1ccc(-c3nnc(C(F)F)o3)cc1F)c1ccc(F)c(F)c1)C2        < 5.00
16  CC(C)c1cc(C(=O)N(Cc2ccc(C(=O)NO)cc2)c2ccc(N3CCOCC3)cc2)c(O)cc1O          6.56
17  CN1C[C@@H]2C[C@H]1CN2C(=S)N(Cc1ccc(-c2nnc(C(F)F)o2)cc1F)c1ccc(F)c(F)c1        < 5.00
18  CN1CCN(C(=S)N(Cc2ccc(-c3nnc(C(F)F)o3)cc2F)c2ccccc2)CC1        < 5.00
19  CC(C)N1C[C@@H]2C[C@H]1CN2C(=S)N(Cc1ccc(-c2nnc(C(F)F)o2)cc1F)c1ccc(F)cc1        < 5.00
20  CN1CC2(C1)CN(C(=S)N(Cc1ccc(-c3nnc(C(F)F)o3)cc1F)c1ccc(F)c(Cl)c1)C2        < 5.00
21         CCCNNC(=O)CCCCNC(=O)/C=C/c1cccnc1          6.16
22  CCCNNC(=O)c1ccc(CNC(=O)CCCCCCNC(=O)/C=C/c2cccnc2)cc1          6.30
23  CCCNNC(=O)c1ccc(NC(=O)CCCCCCCNC(=O)/C=C/c2cccnc2)cc1          6.21
24  C[C@@H](c1ccc(C(=O)Nc2cc(F)c(F)cc2N)cc1)n1nc(-c2ccc(CN(C)C)cc2)ccc1=O          7.00
25  C[C@@H](c1ccc(C(=O)Nc2ccccc2N)cc1)n1nc(-c2cccc(Cl)c2)ccc1=O          7.28
26  CN1CC2(C1)CN(C(=S)N(Cc1ccc(-c3nnc(C(F)F)o3)cc1)c1ccc(F)cc1)C2        < 5.00
27  CN1CCC2(CC1)CN(C(=S)N(Cc1ccc(-c3nnc(C(F)F)o3)cc1F)c1ccc(F)c(F)c1)C2        < 5.00
28  COc1ncc(-c2nc(N3CCOCC3)nc3c(OC4CCN(c5ccc(C(=O)NO)cn5)CC4)cc(F)cc23)cc1NS(C)(=O)=O  7.00 to 8.00
29  Fc1cc(-c2nnc(C(F)F)o2)ccc1CN(C(=S)c1ccncc1)c1ccccc1        < 5.00
